- Test system: glucocorticoid receptor (Homo sapiens, UniProt P04150)
- Construct: endogenous in cells; host or cells: HeLa (ATCC) cell lysate supernatant
- Sequence (P04150 1-777): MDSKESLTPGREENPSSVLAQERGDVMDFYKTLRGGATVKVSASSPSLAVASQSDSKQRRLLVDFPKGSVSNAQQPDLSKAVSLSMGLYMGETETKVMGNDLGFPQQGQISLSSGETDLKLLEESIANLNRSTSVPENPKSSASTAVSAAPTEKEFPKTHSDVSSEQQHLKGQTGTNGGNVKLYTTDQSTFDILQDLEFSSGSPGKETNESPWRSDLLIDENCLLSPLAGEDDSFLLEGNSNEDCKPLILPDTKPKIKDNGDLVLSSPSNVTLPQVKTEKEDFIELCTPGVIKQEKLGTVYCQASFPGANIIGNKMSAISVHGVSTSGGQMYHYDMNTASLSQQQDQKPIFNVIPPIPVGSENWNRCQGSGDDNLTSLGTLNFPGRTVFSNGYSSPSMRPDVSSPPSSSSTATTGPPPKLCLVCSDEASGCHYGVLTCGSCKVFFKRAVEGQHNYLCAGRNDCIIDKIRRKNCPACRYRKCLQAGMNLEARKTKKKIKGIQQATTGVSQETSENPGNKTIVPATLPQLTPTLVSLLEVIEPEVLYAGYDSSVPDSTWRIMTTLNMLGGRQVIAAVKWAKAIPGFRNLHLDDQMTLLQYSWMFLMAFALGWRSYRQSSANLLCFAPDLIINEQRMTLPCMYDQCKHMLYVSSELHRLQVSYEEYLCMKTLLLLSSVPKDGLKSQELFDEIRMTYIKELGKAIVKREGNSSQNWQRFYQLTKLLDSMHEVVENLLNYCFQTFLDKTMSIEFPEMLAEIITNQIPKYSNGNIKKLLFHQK
- Test summary: Ligand binding assay (GRBind), 3H-dexamethasone displacement in HeLa cell lysate
- Cond: 3H-DEX tracer
Measured Ki of individual entries
Your answer is read as nM, so omit the unit and give the number.

# example entries with known answers
CC[C@]12Cc3cnn(-c4ccc(F)cc4)c3C=C1CC[C@@]2(O)CC(O)c1ccc(F)cn1 (single isomer, unassigned) [Example 69b]	2.91
CC[C@]12Cc3cnn(-c4ccc(F)cc4)c3C=C1CC[C@@]2(O)CCc1ccccc1C(O)C(N)=O (stereo partly drawn) [Example 25]	3.23
CC[C@]12Cc3cnn(-c4ccccc4)c3C=C1CC[C@@]2(O)CCc1cccc(F)c1C#N	1.28

Checklist item: Ki tested on glucocorticoid receptor (Homo sapiens, UniProt P04150), entry N#Cc1cccnc1CC[C@]1(O)CCC2=Cc3c(cnn3-c3ccc(F)cc3)C[C@@]21C1CC1 , value? 1.58

Now try NC(=O)[C@H](F)c1c(F)cccc1CC[C@]1(O)CCC2=Cc3c(cnn3-c3ccc(F)cc3)C[C@@]21C1CC1 . 1.5

Now consider NS(=O)(=O)c1ccccc1CC[C@]1(O)CCC2=Cc3c(cnn3-c3cccnc3)C[C@@]21C1CC1 . 2.19

Repeat with CC[C@]12Cc3cnn(-c4ccc(F)cc4)c3C=C1CC[C@@]2(O)CCc1ccccc1CCC(N)=O 1.48

Moving on to CC[C@]12Cc3cnn(-c4cccc(F)c4)c3C=C1CC[C@@]2(O)CCc1cccc(F)c1C(N)=O 1.85

CC[C@]12Cc3cnn(-c4ccc(F)cc4)c3C=C1CC[C@@]2(O)CCc1ccccc1C(O)C(N)=O (stereo partly drawn) [Example 26] ? 3.82

Ok, now CC[C@]12Cc3cnn(-c4ccc(F)cc4)c3C=C1CC[C@@]2(O)CCc1cccc(F)c1CC(N)=O 2.33

And NC(=O)CNC(=O)c1ccccc1CC[C@]1(O)CCC2=Cc3c(cnn3-c3ccc(F)cc3)C[C@@]21C1CC1 ? 1.43

Next compound: CC[C@]12Cc3cnn(-c4ccc(F)cc4)c3C=C1CC[C@@]2(O)CC(O)c1ncccc1F (stereo partly drawn) [Example 76] 20.8

---

- Test system: human GR (Homo sapiens, UniProt P04150)
- Construct: naturally expresses the human GR; endogenous in cells
- Test summary: Trans-activation modulation of glucocorticoid receptor (GRAMMER), MMTV-LUC reporter in A549 cells
- Format: cell-based
- Cond: A549 cells; IP = inflection point; read-out: Transactivation A549 Cells Grammer IP
Endpoint: pEC50
The read-out pEC50 is expressed as -log10 of concentration in moles per litre.

Would you please look over these solved cases?
CC[C@]12Cc3cnn(-c4ccccc4)c3C=C1CC[C@@]2(O)CC(O)c1ccccn1 (single isomer, unassigned) [Example 82a]	6.55
CC[C@]12Cc3cnn(-c4cccc(F)c4)c3C=C1CC[C@@]2(O)CCc1ccccc1C(N)=O	7.08
N#Cc1ccccc1CC[C@]1(O)CCC2=Cc3c(cnn3-c3ccccc3)C[C@@]21C1CC1	7.64
CC[C@]12Cc3cnn(-c4ccc(F)cc4)c3C=C1CC[C@@]2(O)CCc1ncccc1C(N)=O	7.19
CC[C@]12Cc3cnn(-c4ccc(F)cc4)c3C=C1CC[C@@]2(O)CC(O)c1cc(C#N)ccn1 (stereo partly drawn)	6.73

Record request: pEC50 value, item CC[C@]12Cc3cnn(-c4ccc(F)cc4)c3C=C1CC[C@@]2(O)CC(O)c1ncccc1F (stereo partly drawn) [Example 76] 6.85

---

- Test system: human GR (Homo sapiens)
- Construct: naturally expresses the human GR; endogenous in cells
- Test summary: Trans-activation modulation of glucocorticoid receptor (GRAMMER), MMTV-LUC reporter in A549 cells
- Type: cell-based
- Cond: A549 cells; IP = inflection point; read-out: Transactivation A549 Cells Grammer IP
Endpoint: pEC50
Just the number, please; pEC50 means minus log10 of the concentration in mol/L.

O=C(NCCO)c1ccccc1CC[C@]1(O)CCC2=Cc3c(cnn3-c3ccc(F)cc3)C[C@@]21C1CC1	7.92
CC[C@]12Cc3cnn(-c4ccc(F)cc4)c3C=C1CC[C@@]2(O)CCc1ccccc1C(O)C(N)=O (stereo partly drawn) [Example 25]	6.71

Let's switch to this molecule now.
Would you kindly share the measured pEC50 for NC(=O)c1ccccc1CC[C@]1(O)CCC2=Cc3c(cnn3-c3ccc(F)cc3)C[C@@]21C1CC1 ? 7.43

---

As shown below, each of these molecules has a reported EC50 value.
- Test system: human GR (Homo sapiens)
- Construct: naturally expresses the human GR; endogenous in cells
- Test summary: Trans-activation modulation of glucocorticoid receptor (GRAMMER), MMTV-LUC reporter in A549 cells
- Type: cell-based
- Cond: A549 cells; IP = inflection point; read-out: Transactivation A549 Cells Grammer IP
Quick reminder: number only, in nM, skip the unit.

Guide cases for EC50, answers given:
CC[C@]12Cc3cnn(-c4ccc(F)cc4)c3C=C1CC[C@@]2(O)CC(O)c1cncc(F)c1 (stereo partly drawn)	101
CC[C@]12Cc3cnn(-c4ccc(F)cc4)c3C=C1CC[C@@]2(O)CCc1ccccc1S(=O)(=O)CC	92

Read the next record carefully.
Fill in the blank: the reported EC50 of CC[C@]12Cc3cnn(-c4ccc(F)cc4)c3C=C1CC[C@@]2(O)CCc1cncc(F)c1 is ____. 76

---

- Test system: human GR (Homo sapiens)
- Construct: naturally expresses the human GR; endogenous in cells
- Test summary: Trans-activation modulation of glucocorticoid receptor (GRAMMER), MMTV-LUC reporter in A549 cells
- Assay type: cell-based
- Cond: A549, A549 cells; Emax relative to the activity obtained with 300 nM dexamethasone; read-out: Transactivation A549 Cells Grammer Emax (%)
# cutoff 40% applies to Emax; >= gives satisfied, < gives not satisfied

CC[C@]12Cc3cnn(-c4ccc(F)cc4)c3C=C1CC[C@@]2(O)CCc1ncccc1S(=O)(=O)C(C)C	satisfied
NC(=O)CNC(=O)c1cccnc1CC[C@]1(O)CCC2=Cc3c(cnn3-c3ccc(F)cc3)C[C@@]21C1CC1	satisfied
CC[C@]12Cc3cnn(-c4ccc(F)cc4)c3C=C1CC[C@@]2(O)CCc1ccccc1S(=O)(=O)C(C)C	not satisfied

Note: attention shifts to another entry.
Is reported Emax greater than or equal to 40% here: NC(=O)c1c(C(F)(F)F)ccnc1CC[C@]1(O)CCC2=Cc3c(cnn3-c3ccc(F)cc3)C[C@@]21C1CC1 not satisfied

---

- Test system: human GR (Homo sapiens)
- Construct: naturally expresses the human GR; endogenous in cells
- Test summary: Trans-activation modulation of glucocorticoid receptor (GRAMMER), MMTV-LUC reporter in A549 cells
- Format: cell-based
- Cond: A549, A549 cells; Emax relative to the activity obtained with 300 nM dexamethasone; read-out: Transactivation A549 Cells Grammer Emax (%)
Known Emax of a selection of molecules
Lab book: enter the figure in %, no units written.

Use these answered entries as a reference point.
OCc1ccccc1CC[C@]1(O)CCC2=Cc3c(cnn3-c3ccc(F)cc3)C[C@@]21C1CC1	24
CC[C@]12Cc3cnn(-c4ccc(F)cc4)c3C=C1CC[C@@]2(O)CCc1cc(C(F)(F)F)ccn1	24
CC[C@]12Cc3cnn(-c4ccc(F)cc4)c3C=C1CC[C@@]2(O)CC(O)c1cncc(F)c1 (stereo partly shown)	34

Next molecule, please.
Name the reported Emax value associated with the molecule CC[C@]12Cc3cnn(-c4ccc(F)cc4)c3C=C1CC[C@@]2(O)CCc1cc(F)ccn1 32

Source listed as patent US20120214847A1.
